# credit: patent US20230398130A1

- Test system: ISC-enriched organoids
- test-details: Primary screen, 384-well 2.5-D organoid differentiation (ENR+CD, 6 days): basal lysozyme secretion (LYZ.NS)
- Assay type: cell-based, murine
- measurement-conditions: dose 10.00 uM
Assign labels as follows, please: Met for Z.LYZ.NS (standard z score) below -0.8; Not met for Z.LYZ.NS (standard z score) equal to or exceeding -0.8.

| molecule | classification |
| --- | --- |
| CCC(=O)Nc1cccc(Oc2nc(Nc3ccc(N4CCN(C)CC4)cc3OC)ncc2Cl)c1 | Met |
| Nc1nc(N)c2nc(-c3cccc(O)c3)c(-c3cccc(O)c3)nc2n1 | Not met |
| C[C@H](NC(=O)Cc1cc(F)cc(F)c1)C(=O)N[C@@H]1C(=O)N(C)c2ccccc2-c2ccccc21 | Met |
| COc1cc2ncnc(Nc3ccc(Cl)cc3F)c2cc1OC | Met |
| COc1cc2/c(=N/c3ccc(Br)cc3F)nc[nH]c2cc1OCC1CCN(C)CC1 [Vandetanib (ZD6474)] | Met |
| COCC[n+]1c2c(n(Cc3cnccn3)c1C)C(=O)c1ccccc1C2=O.[Br-] [YM155 (Sepantronium Bromide)] | Met |
| NC(=O)c1cccc(-c2cccc(OC(=O)NC3CCCCC3)c2)c1 | Not met |
| COc1cc2c(Nc3ccc(NC(=O)c4ccccc4)cc3)ncnc2cc1OCCCN1CCOCC1 | Not met |
| NC(=O)Nc1sc(-c2ccc(F)cc2)cc1C(N)=O | Met |

----------
- System: ISC-enriched organoids
- test-details: Primary screen, 384-well 2.5-D organoid differentiation (ENR+CD, 6 days): basal lysozyme secretion (LYZ.NS)
- Format: cell-based, murine
- measurement-conditions: primary screen, dose 0.40 uM, standard z score of FC
Counter-ions that a name gives are not always drawn.

| molecule | Z.LYZ.NS |
| --- | --- |
| CC(C)N(CC[C@H](c1ccccc1)c1cc(CO)ccc1O)C(C)C [5-hydroxymethyl Tolterodine (PNU 200577, 5-HMT, 5-HM)] | 0.665 |
| CC(C)CCN1c2nc(Nc3cc(F)c(O)c(F)c3)ncc2N(C)C(=O)C1C (centres unmarked) | 1.099 |
| CCN(CC)C(=O)c1ccc(C2=CC3(CCNCC3)Oc3cccc(O)c32)cc1 [ADL5859 HCl] | 0.163 |
| CC(C)c1c(C(=O)Nc2ccccc2)c(-c2ccccc2)c(-c2ccc(F)cc2)n1CC[C@@H](O)C[C@@H](O)CC(=O)[O-].CC(C)c1c(C(=O)Nc2ccccc2)c(-c2ccccc2)c(-c2ccc(F)cc2)n1CC[C@@H](O)C[C@@H](O)CC(=O)[O-].[Ca+2] | 0.062 |
| COc1cc(N2CCC(N)CC2)ccc1Nc1ncc(Cl)c(-c2c[nH]c3ccccc23)n1 | −1.652 |
| CN(C)C(=O)c1ccc(S(=O)(=O)c2ccc(NC(=O)[C@@](C)(O)C(F)(F)F)c(Cl)c2)cc1 | −0.245 |
| O=C(c1ccc(F)cc1)N1CCC[C@H](c2nc(-c3ccc(F)cc3)no2)C1 | 0.457 |
| C[C@H](Oc1cc(-c2cnn(C3CCNCC3)c2)cnc1N)c1c(Cl)ccc(F)c1Cl [(S)-crizotinib] | 0.081 |

----------
- Tested on: ISC-enriched organoids
- test-details: Primary screen, 384-well 2.5-D organoid differentiation (ENR+CD, 6 days, Target Selective Inhibitor Library, vs whole-plate median): ATP (CellTiter-Glo 3D, CTG)
- measurement-conditions: Dose 0.40 uM; primary screen, FC vs plate median
Consider the following compounds and their measured Dose.FC.CTG readings.

| compound | Dose.FC.CTG |
| --- | --- |
| Cc1ccc(NC(=O)c2ccc(CN3CCN(C)CC3)cc2)cc1Nc1nccc(-c2cccnc2)n1 [Imatinib (STI571)] | 0.079 log 2 fold change |
| FC(F)(F)c1ccc(/C=C/c2nc(COc3ccc(CCCCn4ccnn4)cc3)co2)cc1 | −0.340 log 2 fold change |
| Cc1c(C(=O)Nc2ccc(N3C[C@@H](C)O[C@@H](C)C3)nc2)cccc1-c1ccc(OC(F)(F)F)cc1 | 0.067 log 2 fold change |
| NC(=O)c1cccc(-c2cc(Nc3ccc(OC(F)(F)F)cc3)ncn2)c1 | 0.090 log 2 fold change |
| OCCn1cc(-c2cnc3nnn(Cc4ccc5ncccc5c4)c3n2)cn1 | 0.258 log 2 fold change |
| CCC(CC)(NC(=O)C(C)C)C(=O)N[C@@H](CCCN=C(N)N)C(=O)NC1(C(=O)NC(c2ccc(F)cc2)c2ccc(F)cc2)CCCC1 | −0.132 log 2 fold change |
| Cl.Cl.NC1(c2ccc(-c3nc4ccn5c(=O)[nH]nc5c4cc3-c3ccccc3)cc2)CCC1 [MK-2206 2HCl] | −0.023 log 2 fold change |
| NCC(=O)Nc1ccc(-n2nc(C(F)(F)F)cc2-c2ccc3c(ccc4ccccc43)c2)cc1 | 0.114 log 2 fold change |
| O=C(O)CNC(=O)c1c(O)c2ccccc2n(Cc2ccccc2)c1=O | 0.078 log 2 fold change |

----------
- Tested on: ISC-enriched organoids
- test-details: Primary screen, 384-well 2.5-D organoid differentiation (ENR+CD, 6 days): basal lysozyme secretion (LYZ.NS)
- Type: cell-based, murine
- measurement-conditions: Dose 10.00 uM; primary screen
# Lookup of reported Z.LYZ.NS (standard z score) keyed by entry

| mol | Z.LYZ.NS (standard z score) |
| --- | --- |
| Cc1cc(NC(=O)Nc2ccc(N(C)C)cc2)c2cc(F)cc(F)c2n1 | −0.607 |
| CC(C)(C)c1cnc(CSc2cnc(NC(=O)C3CCNCC3)s2)o1 | −2.214 |
| O=C1CC(=O)c2c(Cl)c(Cl)c(Cl)c(Cl)c21 | −0.159 |

----------
- Tested on: ISC-enriched organoids
- test-details: Primary screen, 384-well 2.5-D organoid differentiation (ENR+CD, 6 days): basal lysozyme secretion (LYZ.NS)
- Format: cell-based, murine
- measurement-conditions: Dose 0.08 uM; primary screen

| molecule | Z.LYZ.NS (standard z score) |
| --- | --- |
| Oc1ccc(Nc2nc(-c3ccc(Cl)cc3)cs2)cc1 [SKI II] | 0.683 |
| CCn1c(N)c(C(=O)NC)c(=O)c2ccc(C#C[C@@](C)(O)COC)nc21 [SAR131675] | 0.483 |
| O=S(=O)(c1ccccc1)c1cnc2c(N3CCNCC3)cccc2c1 [SB742457] | 0.108 |
| O=C(Nc1ccccc1Br)N[C@@H]1CCN(c2ccc(C(F)(F)F)cn2)C1 [SB705498] | 0.642 |
| O=C(NNc1nc2cc(F)ccc2n2cccc12)c1cnccn1 [SC144] | 0.582 |

----------
- Test system: ISC-enriched organoids
- test-details: Primary screen, 384-well 2.5-D organoid differentiation (ENR+CD, 6 days, Target Selective Inhibitor Library, vs whole-plate median): ATP (CellTiter-Glo 3D, CTG)
- measurement-conditions: Dose 2.00 uM; primary screen
Where a name gives a salt, the structure may show the parent alone.

| molecule | system-tested | Z.CTG (standard z score) |
| --- | --- | --- |
| O=C(Nc1cc(C(F)(F)F)ccc1N1CCCCC1)c1ccncc1 [SRPIN340] | ISC-enriched organoids | 1.083 |
| COc1ccc(C2CNC(=O)C2)cc1OC1CCCC1 (centres unmarked) [Rolipram] | ISC-enriched organoids | 0.945 |
| C[C@H](NCc1ccc(OCc2cccc(F)c2)cc1)C(N)=O [Safinamide Mesylate] | ISC-enriched organoids | 0.627 |
| Nc1ccc(C(=O)[O-])c(O)c1.[Na+] [Sodium 4-Aminosalicylate] | ISC-enriched organoids | 0.092 |
| CN1CC(=O)N2[C@H](c3ccc4c(c3)OCO4)c3[nH]c4ccccc4c3C[C@@H]2C1=O [Tadalafil] | ISC-enriched organoids | 1.042 |
| COc1cc(OC)c(/C=C/S(=O)(=O)Cc2ccc(OC)c(NCC(=O)O)c2)c(OC)c1 [Rigosertib (ON-01910)] | ISC-enriched organoids | −3.984 |
| Cc1cc(Nc2ccc(NC(=O)c3ccc(Nc4ccnc5ccccc45)cc3)cc2)nc(N)n1 [SGI-1027] | ISC-enriched organoids | 0.412 |
| Cc1ccc(C(=O)N(CCCN)[C@@H](c2oc3cc(Cl)ccc3c(=O)c2Cc2ccccc2)C(C)C)cc1 [SB743921] | ISC-enriched organoids | −1.158 |

----------
- Test system: ISC-enriched organoids
- test-details: Primary screen, 384-well 2.5-D organoid differentiation (ENR+CD, 6 days, Target Selective Inhibitor Library, vs whole-plate median): ATP (CellTiter-Glo 3D, CTG)
- measurement-conditions: dose 0.08 uM; vs plate median
Please note: Dose.FC.CTG (log 2 fold change, ATP) exactly at 0.02 is false. Only values below 0.02 get true.

| compound | classification |
| --- | --- |
| NC(=O)Nc1sc(-c2ccc(F)cc2)cc1C(N)=O | true |
| c1ccc(NCc2ccc(CNc3ccccn3)cc2)nc1 | false |
| Cl.N[C@@H]1C[C@H]1c1ccccc1 (racemic) [Tranylcypromine (2-PCPA) HCl] | true |
| Cc1cc(-c2ccc(CC(=O)Nc3ccc(-c4cccnc4)cc3)cc2)ccn1 | true |
| CS(=O)(=O)c1ccc(-c2cnc(N)c(C(=O)Nc3ccccc3)n2)cc1 | false |
| Cl.Cl.Cl.O[C@@H](COc1cccc2ncccc12)CN1CCN([C@@H]2c3ccccc3[C@@H]3[C@H](c4ccccc42)C3(F)F)CC1 [Zosuquidar (LY335979) 3HCl] | true |
| CCO.N#CC(=C(/N)Sc1ccccc1N)/C(C#N)=C(\N)Sc1ccccc1N | true |
| CCCS(=O)(=O)Nc1ccc(F)c(C(=O)c2c[nH]c3ncc(-c4ccc(Cl)cc4)cc23)c1F | false |
| Cc1ccc(NC(=O)C2(c3ccc4c(c3)OC(F)(F)O4)CC2)nc1-c1cccc(C(=O)O)c1 | false |
| CN(C)CCCCC(=O)Nc1ccc(NC(=S)NC(=O)c2ccc(C(C)(C)C)cc2)cc1 | false |
| N#C[C@@H]1CCCN1C(=O)CNC12CC3CC(CC(O)(C3)C1)C2 | false |
| Cc1cc(C)nc(NS(=O)(=O)c2ccc(NC(=S)NC(=O)COc3ccc(Br)cc3Cl)cc2)n1 | true |
| CC(/C=C/C(=O)NO)=C\[C@@H](C)C(=O)c1ccc(N(C)C)cc1 | false |
